B1: HDV Ribozyme (parent)
chain: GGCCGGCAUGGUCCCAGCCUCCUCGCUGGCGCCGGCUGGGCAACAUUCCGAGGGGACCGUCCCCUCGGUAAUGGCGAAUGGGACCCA

variants of: B1; test: self-cleavage, relative activity (ratio to wild type); higher = more cleavage; co-transcriptional
Where self-cleavage equals or exceeds 0.2, the correct label is satisfied; where it does not, the label is not satisfied.

These solved cases illustrate the format of a correct answer.
MUTATION NOTATION	ANSWER LABEL
C4G C13U	satisfied
U65C C75U	not satisfied
G17U G39C	not satisfied
C58A G74C	satisfied
C7G C64U	satisfied

Please check the record G17U G35C and state if its self-cleavage is at or above 0.2.
not satisfied

Given G38A A45C , state whether its self-cleavage is at least 0.2.
not satisfied

Is it the case that A42U C44A has self-cleavage reaching or exceeding 0.2?
satisfied

Threshold query (self-cleavage >= 0.2) on C21A G35C
not satisfied

Textbook exercise: given the entry G11U G68U , state whether its self-cleavage is greater than or equal to 0.2.
not satisfied
